Target: CPEB1 pS423 peptide (UniProt Q9BZB8, phosphoserine at 423)
Test: ITC
QUANTITY KIND: pKd
// pKd: -log10(molar conc.)

Need pKd of MADEEKLPPGWEKRMSRSSGRVYYFNHITNASQWERPSGNS (domain or fragment) [Pin1 WW domain] , thanks.
3.80
